Provenance of the data: ChEMBL document CHEMBL1124151

- Tested on: Rattus norvegicus
- test protocol: Distribution in uterus/blood of estrogen-primed immature rats after 3 hour iv administration (120 micro Ci)
- measurement context: in vivo
readout: uterus/blood ratio
Lab note: record the figure alone, no unit after it.

In: Given the compound CC[C@@H]1C[C@H]2[C@@H]3CCC4=CC(=O)CC[C@@H]4[C@H]3CC[C@]2(C)[C@H]1C(=O)C[18F] , what is its reported uterus/blood ratio?
Out: 71.2
